Attribution: paper PMC7744550

target entity: Trf2∆N-FG3 (Ustilago maydis) (UniProt A0A0D1E1Z3)
Sequence: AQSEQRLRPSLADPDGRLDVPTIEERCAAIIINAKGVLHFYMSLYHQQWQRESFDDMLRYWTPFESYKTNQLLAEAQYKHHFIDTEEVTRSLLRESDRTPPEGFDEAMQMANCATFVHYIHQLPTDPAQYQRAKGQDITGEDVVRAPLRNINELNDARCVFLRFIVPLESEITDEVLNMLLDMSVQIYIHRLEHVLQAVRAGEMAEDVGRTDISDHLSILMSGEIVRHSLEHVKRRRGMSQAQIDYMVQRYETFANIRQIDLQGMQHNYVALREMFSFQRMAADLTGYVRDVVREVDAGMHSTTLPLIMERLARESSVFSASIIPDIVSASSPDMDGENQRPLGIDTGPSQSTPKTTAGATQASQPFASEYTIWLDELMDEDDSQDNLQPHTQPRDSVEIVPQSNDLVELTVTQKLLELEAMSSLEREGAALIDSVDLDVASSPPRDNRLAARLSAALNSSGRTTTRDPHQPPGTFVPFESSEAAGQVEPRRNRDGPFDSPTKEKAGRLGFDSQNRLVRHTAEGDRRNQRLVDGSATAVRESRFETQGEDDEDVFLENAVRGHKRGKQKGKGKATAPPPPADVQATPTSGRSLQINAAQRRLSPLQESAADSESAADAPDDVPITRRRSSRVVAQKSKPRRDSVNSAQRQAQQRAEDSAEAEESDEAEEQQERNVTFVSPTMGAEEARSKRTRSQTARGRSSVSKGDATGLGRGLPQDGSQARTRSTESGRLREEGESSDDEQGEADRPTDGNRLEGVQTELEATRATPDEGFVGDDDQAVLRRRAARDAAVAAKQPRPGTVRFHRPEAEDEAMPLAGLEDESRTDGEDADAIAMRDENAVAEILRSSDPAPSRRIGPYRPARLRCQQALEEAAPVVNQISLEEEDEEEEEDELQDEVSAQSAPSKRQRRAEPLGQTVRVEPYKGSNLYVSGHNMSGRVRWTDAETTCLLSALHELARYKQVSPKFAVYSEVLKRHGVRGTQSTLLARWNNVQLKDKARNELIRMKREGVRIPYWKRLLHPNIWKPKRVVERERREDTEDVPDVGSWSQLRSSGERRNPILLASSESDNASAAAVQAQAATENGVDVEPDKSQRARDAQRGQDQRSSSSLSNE
assay: EMSA
conditions used: 25 mM HEPES-KOH pH 7.5, 5% glycerol, 3 mM MgCl2, 0.1 mM EDTA, 1 mM DTT, 0.5 µg/µl BSA, 1-10 nM 32P probe, 22 °C 15 min; 6% native PAGE in 0.2x TBE
measured parameter: Kd

Lab book: Kd of TTAGGGTTAGGGTTAGGGTTAGGG (double strand) [TTAGGG4 ds] noted as 20 nM
